- Tested on: NCI-H23 lung
- assay-name: NCI tumour cell line growth inhibition, 48 h
I'd be grateful if you could share measured TGI for these entries.

COc1ccc(-c2nc(Nc3ccc(F)cc3)nc(Nc3ccc4c(c3)nc(C)n4Cc3ccccc3)n2)cc1 :: > 100 µM
CC1=CC=C2C(C)(C)CC[C@@H]3OC(=O)[C@H]1[C@]23C :: > 100 µM
OCC(O)COc1ccc(F)cc1 (configuration not stated) :: > 100 µM
CCN(CC)CCC1CCCCN1CC(=O)N1c2ccccc2NC(=O)CC1C (configuration not stated) :: > 100 µM

For every record below, what is its TGI?
1. CN1CCN(Cn2nc(-c3ccccc3)n(/N=C/c3ccc(-c4ccc(Cl)cc4Cl)o3)c2=S)CC1
2. CC(=O)c1cc2sc3ccccc3c2[nH]1
3. COc1ccc(/C=C/C(=O)c2ccc(B(O)O)cc2)cc1O
4. S=C1NC(c2ccccc2)=NC(Cc2ccccc2)(c2ccccc2)N1c1ccccc1 (configuration not stated)
5. CC(=O)OC1C(COC(N)=O)OC(n2c(-c3ccc(C)cc3)cc(-c3ccccc3)c(C#N)c2=O)C(OC(C)=O)C1OC(C)=O (configuration not stated)
6. Cc1c(/C=N/NC(=S)Nc2ccc([N+](=O)[O-])cc2)c(=O)n(-c2ccccc2)n1C

1. 40.7 µM
2. > 100 µM
3. 69.4 µM
4. > 100 µM
5. > 100 µM
6. 32.6 µM

For every record below, what is its TGI?
1. CCOC(=O)c1sc(Nc2cc(Cl)ccc2Cl)nc1C
2. COc1ccc(C(=O)/C=C/c2ccc(OCC(=O)N3CCN(c4ccccc4)CC3)cc2)cc1OC

1. > 100 µM
2. 5.55 µM
